Listed below are molecules with pIC50 for UniProt:P03956, each taken from published literature.
Friendly reminder that pIC50 comes from taking -log10 of the concentration in mol/L.

Input: Test system UniProt:P03956; read-out pIC50; what value for O=C(O)[C@H]1[C@H](Cn2nnc3ccc(C(F)(F)F)cc3c2=O)CC[C@@H]1C(=O)c1ccc(OCCC2CCOCC2)cc1 (stereo in doubt) ?
Output: 5.06

Input: Give the reported pIC50 for O=C(O)[C@@H]1[C@@H](Cn2nnc3ccc(C(F)(F)F)cc3c2=O)CC[C@H]1C(=O)c1ccc(OCC2CCCCC2)cc1 (single isomer, unassigned) (system: UniProt:P03956).
Output: 5.51

Input: Item `O=C(O)CN(CC(=O)NO)S(=O)(=O)c1ccc(Oc2ccc(Br)cc2)cc1` with UniProt:P03956 - pIC50?
Output: 6.04
